- target-entity: Adenosine kinase (Homo sapiens, UniProt P55263)
- Sequence (P55263 whole entry): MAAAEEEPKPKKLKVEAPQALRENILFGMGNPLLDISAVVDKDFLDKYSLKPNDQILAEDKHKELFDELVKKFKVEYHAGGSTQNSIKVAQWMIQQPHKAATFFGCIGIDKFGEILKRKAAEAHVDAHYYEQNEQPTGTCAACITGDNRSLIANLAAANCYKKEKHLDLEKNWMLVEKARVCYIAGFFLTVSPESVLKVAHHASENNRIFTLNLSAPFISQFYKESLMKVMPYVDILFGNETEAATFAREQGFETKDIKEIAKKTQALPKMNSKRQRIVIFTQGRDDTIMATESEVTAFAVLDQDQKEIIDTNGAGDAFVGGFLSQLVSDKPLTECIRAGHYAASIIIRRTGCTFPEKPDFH
- method-summary: Inhibition of adenosine kinase in intact cells assessed as adenosine phosphorylation
- Assay type: functional, cell-based
parameter-measured: pIC50
One number for each entry, as −log10 of the molar value.

Nc1ncnc(C#Cc2cncc(N3CCOCC3)c2)c1-c1ccc(Cl)cc1
6.96
Nc1ncnc(C#Cc2ccc(N3CCOCC3)nc2)c1-c1cc2ccccc2o1
6.91
Nc1ncnc(C#Cc2ccc(N3CCOCC3)nn2)c1-c1ccc(Cl)cc1
6.15
Nc1ncnc(C#Cc2ccc(N3CCOCC3)nc2)c1-c1ccsc1
6.67

Fill in pIC50 for each of the 6 compounds listed.
1. Nc1ncnc(C#Cc2ccc(N3CCOCC3)nc2)c1-c1cccs1
2. CN(C)c1ccc(C#Cc2ncnc(N)c2-c2cccc(Cl)c2)cc1
3. CN(C)c1ccc(C#Cc2ncnc(N)c2-c2ccc3c(c2)OCO3)cc1
4. COCCN(C)c1cc(N2CCOCC2)ncc1C#Cc1ncnc(N)c1-c1ccc2c(c1)OCO2
5. CN(C)c1ccc(C#Cc2ncnc(N3CCOCC3)c2-c2ccc(Cl)cc2)cc1
6. CC(C)NC(=O)Nc1cc(C#Cc2ncnc(N)c2-c2ccc3c(c2)OCO3)cnc1N1CCOCC1

result:
1. 6.78
2. 6.26
3. 6.60
4. 6.70
5. 6.01
6. 7.06

Fill in pIC50 for each of the 4 compounds listed.
1. CN(C)c1ccc(C#Cc2ncnc(N)c2-c2ccccc2Cl)cc1
2. Nc1ncnc(C#Cc2ccc(N3CCOCC3)cc2)c1-c1ccc(Cl)cc1
3. COCCN(C)c1ccc(C#Cc2ncnc(N)c2-c2ccc(Cl)cc2)cn1
4. Nc1ncnc(C#Cc2cnc(N3CCOCC3)nc2)c1-c1ccc(Cl)cc1

result:
1. 6.15
2. 6.56
3. 7.10
4. 6.70

Fill in pIC50 for each of the 5 compounds listed.
1. Cc1ccc(-c2c(N)ncnc2C#Cc2ccc(N(C)C)cc2)cc1
2. Nc1ncnc(C#Cc2ccc(N3CCOCC3)nc2)c1-c1ccc2c(c1)OCO2
3. CN(C)c1cc(N2CCOCC2)ncc1C#Cc1ncnc(N)c1-c1ccc2c(c1)OCO2
4. COc1ccc(-c2c(N)ncnc2C#Cc2ccc(N(C)C)cc2)cc1OC
5. Nc1ncnc(C#Cc2ccc(N3CCOCC3)nc2)c1-c1ccc(Cl)cc1

result:
1. 6.48
2. 6.92
3. 6.67
4. 6.30
5. 7.24
